meta.source: ChEMBL document CHEMBL3885861

Species: Rattus norvegicus
Experiment description: Open TG-GATES - Regimen: Single
Assay type: toxicity, organism-based, Sprague-Dawley
Set-up: regimen Single, gender Male, age 6 weeks
Measurement setup: in vivo, po, 100 mg/kg, 9 h, tissue Plasma, route gavage, dose level High
Catalogue of compounds with associated gamma-GTP
Remember to follow the number with its unit.

CN(C)CCCN1c2ccccc2CCc2ccc(Cl)cc21 1 IU/L
CN(C)CCCN1c2ccccc2CCc2ccccc21 1 IU/L
CC1=C(/C=C/C(C)=C/C=C/C(C)=C/CO)C(C)(C)CCC1 1 IU/L

# next compound below
Report gamma-GTP for CN(C)CCN(Cc1cccs1)c1ccccn1 please.
1.2 IU/L

----------
Organism: Rattus norvegicus
Experiment description: Open TG-GATES - Regimen: Single
Assay type: toxicity, organism-based, Sprague-Dawley
Parameters: regimen Single, gender Male, age 6 weeks
Measurement setup: in vivo, po, 10 mg/kg, 9 h, tissue Plasma, route gavage, dose level Low
Catalogue of molecules with associated DBIL
Answer with a number only, understood to be in mg/dL.

Below: 3 molecules and their reported DBIL.
Molecule	DBIL (mg/dL)
CN(C)CCCN1c2ccccc2CCc2ccccc21	0.01
CN(C)CCN(Cc1cccs1)c1ccccn1	0
CC1=C(/C=C/C(C)=C/C=C/C(C)=C/CO)C(C)(C)CCC1	0.004

Report DBIL for CC(C)OC(=O)C(C)(C)Oc1ccc(C(=O)c2ccc(Cl)cc2)cc1 [FENOFIBRATE] please.
0.01

Report DBIL for CN(C)CCCN1c2ccccc2CCc2ccc(Cl)cc21 please.
0.01

----------
Species: Rattus norvegicus
Experiment description: Open TG-GATES - Regimen: Single
Type: toxicity, organism-based, Sprague-Dawley
Set-up: regimen Single, gender Male, age 6 weeks
Measurement setup: in vivo, po, 300 mg/kg, 24 h, tissue Plasma, route gavage, dose level Middle
Parameter: DBIL (mg/dL)
Answer with a number only, understood to be in mg/dL.

Below: 3 compounds and their reported DBIL.
Compound	Parameter	Measured
CCOC(=O)CCC(=O)O[C@H]1[C@H](O[C@@H]2[C@@H](C)[C@H](O[C@H]3C[C@@](C)(OC)[C@@H](O)[C@H](C)O3)[C@@H](C)C(=O)O[C@H](CC)[C@@](C)(O)[C@H](O)[C@@H](C)C(=O)[C@H](C)C[C@@]2(C)O)O[C@H](C)C[C@@H]1N(C)C [ERYTHROMYCIN ETHYLSUCCINATE]	DBIL	0.002
NC(N)=Nc1nc(CSCCC(N)=NS(N)(=O)=O)cs1 [FAMOTIDINE]	DBIL	0.074
COc1ccc2[nH]c([S+]([O-])Cc3ncc(C)c(OC)c3C)nc2c1 (centres undefined) [OMEPRAZOLE]	DBIL	0.1

# next compound below
Report DBIL for COC1=CC(=O)C[C@@H](C)[C@]12Oc1c(Cl)c(OC)cc(OC)c1C2=O [GRISEOFULVIN] please.
0.1

----------
Species on record: Rattus norvegicus
Experiment description: Open TG-GATES - Regimen: Daily Repeat
Type: toxicity, organism-based, Sprague-Dawley
Parameters: regimen Daily Repeat, gender Male, age 6 weeks
Measurement setup: in vivo, po, 0 mg/kg, 72 h, tissue Plasma, route gavage, dose level Control, time 3 day
Label scheme for RALB: lower than 3 g/dL is label 0, 3 g/dL and above is label 1.

Is it the case that NNC(=O)c1ccncc1 has RALB reaching or exceeding 3 g/dL?
label 1

Is it the case that CCOC(=O)CCC(=O)O[C@H]1[C@H](O[C@@H]2[C@@H](C)[C@H](O[C@H]3C[C@@](C)(OC)[C@@H](O)[C@H](C)O3)[C@@H](C)C(=O)O[C@H](CC)[C@@](C)(O)[C@H](O)[C@@H](C)C(=O)[C@H](C)C[C@@]2(C)O)O[C@H](C)C[C@@H]1N(C)C [ERYTHROMYCIN ETHYLSUCCINATE] has RALB reaching or exceeding 3 g/dL?
label 0

Is it the case that O=C(CCCN1CCC(O)(c2ccc(Cl)cc2)CC1)c1ccc(F)cc1 has RALB reaching or exceeding 3 g/dL?
label 1

Is it the case that CN1C(=O)CN=C(c2ccccc2)c2cc(Cl)ccc21 has RALB reaching or exceeding 3 g/dL?
label 1

Is it the case that COc1ccc2[nH]c([S+]([O-])Cc3ncc(C)c(OC)c3C)nc2c1 (stereo not drawn) has RALB reaching or exceeding 3 g/dL?
label 1

Is it the case that CC(C)OC(=O)C(C)(C)Oc1ccc(C(=O)c2ccc(Cl)cc2)cc1 [FENOFIBRATE] has RALB reaching or exceeding 3 g/dL?
label 0

Is it the case that COC1=CC(=O)C[C@@H](C)[C@]12Oc1c(Cl)c(OC)cc(OC)c1C2=O has RALB reaching or exceeding 3 g/dL?
label 1

Is it the case that NC(N)=Nc1nc(CSCCC(N)=NS(N)(=O)=O)cs1 has RALB reaching or exceeding 3 g/dL?
label 1
